B1: TPR 5TU (parent)
chain: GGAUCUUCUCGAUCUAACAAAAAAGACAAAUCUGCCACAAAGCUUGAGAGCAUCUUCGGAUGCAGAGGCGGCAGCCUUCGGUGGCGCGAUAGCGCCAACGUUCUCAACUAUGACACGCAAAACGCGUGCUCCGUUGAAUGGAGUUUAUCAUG

- Variants of: B1
- test_name: polymerase ribozyme fitness, log enrichment relative to wild type (log ratio); higher = more active; in vitro selection for triplet polymerase activity
Variants at the floor of the assay were thinned out.
readout_type: polymerase ribozyme fitness (log ratio)

Take a look at these entries with their results.
variant_annotation="C85U C118U" result=-0.662
variant_annotation="A24G G71C C79G C85A G124U U130G U148C" result="≤ -4.2"
variant_annotation="A30C C79U A91G C114U G136C" result="≤ -4.2"
variant_annotation="G143C U146A" result=-3.65
variant_annotation="A17C A19G C51U G59U C75A A91U C116G A121C" result="≤ -4.2"
variant_annotation="U56A C96U U101C U139G" result=-0.437

// field: polymerase ribozyme fitness (log ratio); key: C51U C69G G94C U146C ; value = -1.9

Kindly note the recorded polymerase ribozyme fitness (log ratio) for G50U C54U C93A G136U , which is -4.07

Query C54U C63U G94U G143A yields polymerase ribozyme fitness (log ratio) of -2.26

Sample U45C G84A ; polymerase ribozyme fitness (log ratio) observed: -1.08

polymerase ribozyme fitness (log ratio) reading for A19U A26G A122G : ≤ -4.2

Data origin, for the record: the RNAGym collection of RNA variant scans (doi:10.1073/pnas.2313332121)
